# System: Clone A human colon cancer cells
# protocol-text: In vitro growth inhibition of Clone A cells (MTT, 72 hr)
# Assay type: cell-based
# run-conditions: 72 h, read-out: Clone A IC50
attribute-measured: IC50 (µg/mL)
Please reply with the bare figure in µg/mL and do not write the unit itself.

molecule: CS(=O)(=O)O.O=C1c2cccc3c2c(c(C(F)(F)F)c2ccccc23)C(=O)N1CCCCNCCCN1C(=O)c2cccc3c2c(c(C(F)(F)F)c2ccccc23)C1=O [Example 45]
units: µg/mL
IC50: 1.05

Just so you know, measured IC50 for CS(=O)(=O)O.Cc1cnc2c(c1)cc1c3c(cc([N+](=O)[O-])cc32)C(=O)N(CCCCNCCCN2C(=O)c3cc([N+](=O)[O-])cc4c3c(cc3cc(C)cnc34)C2=O)C1=O [Example 12] came out at 0.009

Just so you know, measured IC50 for CS(=O)(=O)O.O=C1c2cccc3cc([N+](=O)[O-])cc(c23)C(=O)N1CCCCNCCCN1C(=O)c2cc([N+](=O)[O-])cc3c2c(cc2cccnc23)C1=O [Example 111] came out at 0.002

Just so you know, measured IC50 for CS(=O)(=O)O.O=C1c2cc([N+](=O)[O-])cc3c2c(cc2cccnc23)C(=O)N1CCCCNCCCN1C(=O)c2cc([N+](=O)[O-])cc3c2c(cc2cccnc23)C1=O [Example 5] came out at 0.013

Just so you know, measured IC50 for COc1cc2cc3c4c(cccc4c2cc1OC)C(=O)N(CCCCNCCCN1C(=O)c2cccc4c2c(cc2cc(OC)c(OC)cc24)C1=O)C3=O.CS(=O)(=O)O [Example 55] came out at 5.43

Where do the numbers come from? From patent US5585382A.
